# tgt: D(4) dopamine receptor (Homo sapiens, UniProt P21917)
# Sequence (P21917 whole entry): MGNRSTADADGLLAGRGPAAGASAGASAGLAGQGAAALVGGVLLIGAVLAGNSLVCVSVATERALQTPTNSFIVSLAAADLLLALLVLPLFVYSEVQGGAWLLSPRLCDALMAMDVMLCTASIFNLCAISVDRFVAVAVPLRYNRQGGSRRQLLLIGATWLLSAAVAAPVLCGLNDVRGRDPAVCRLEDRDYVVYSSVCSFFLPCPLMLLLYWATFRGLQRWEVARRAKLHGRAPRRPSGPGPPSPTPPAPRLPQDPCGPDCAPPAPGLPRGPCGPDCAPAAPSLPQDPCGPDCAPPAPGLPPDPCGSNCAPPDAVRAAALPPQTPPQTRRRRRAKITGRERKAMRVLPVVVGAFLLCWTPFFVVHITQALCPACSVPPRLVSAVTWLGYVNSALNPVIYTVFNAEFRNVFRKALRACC
value-kind: pKi
Note on units: pKi is unitless, being -log10 of a concentration expressed in mol/L.

QUERY: Request: pKi, test system D(4) dopamine receptor (Homo sapiens, UniProt P21917), entry O=C1c2ccccc2CCCN1CCN1CCC(n2c(=O)[nH]c3cc(F)ccc32)CC1
RESULT: 5.91

---

Data export: Ki values recorded with 5-hydroxytryptamine receptor 7 (Homo sapiens, UniProt P34969).
Sequence (P34969 whole entry): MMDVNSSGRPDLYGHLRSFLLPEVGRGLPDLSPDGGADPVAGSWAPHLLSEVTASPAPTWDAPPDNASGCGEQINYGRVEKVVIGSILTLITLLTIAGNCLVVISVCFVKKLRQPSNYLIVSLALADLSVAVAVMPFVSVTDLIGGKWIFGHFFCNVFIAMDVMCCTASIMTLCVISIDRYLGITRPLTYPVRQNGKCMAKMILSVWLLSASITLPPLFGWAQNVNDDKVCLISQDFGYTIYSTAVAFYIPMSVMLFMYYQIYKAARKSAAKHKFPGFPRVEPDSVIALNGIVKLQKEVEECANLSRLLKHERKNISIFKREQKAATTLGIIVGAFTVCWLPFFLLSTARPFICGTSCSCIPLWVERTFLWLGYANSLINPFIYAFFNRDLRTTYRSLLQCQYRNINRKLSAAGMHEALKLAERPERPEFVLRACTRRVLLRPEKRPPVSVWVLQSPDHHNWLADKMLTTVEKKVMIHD
Give just the numeric value; nM need not be written.

QUERY: Request: Ki, test system 5-hydroxytryptamine receptor 7 (Homo sapiens, UniProt P34969), entry O=C1c2ccccc2CCCN1CCN1CCC(Oc2ccc(Cl)cc2)CC1
RESULT: 11.7

QUERY: Ok, now O=C1c2ccccc2CCCN1CCN1CCC(n2c(O)nc3ccccc32)CC1
RESULT: 10.2

QUERY: Ok, now Cc1ccccc1OC1CCN(CCC2CCCc3ccccc3C2=O)CC1 (stereo unspecified)
RESULT: 11.2

QUERY: Ok, now O=C1c2ccccc2CCCN1CCN1CCC(n2c(=O)[nH]c3cc(F)ccc32)CC1
RESULT: 2.24

QUERY: Ok, now O=C1c2ccccc2CCCN1CCN1CCC(n2ccc3cc(F)ccc32)CC1
RESULT: 0.562

QUERY: Ok, now COc1ccccc1C1CCN(CC2CCc3ccccc3C(=O)C2)CC1 (stereo unspecified)
RESULT: 11.2

---

# tgt: 5-hydroxytryptamine receptor 2A (Homo sapiens, UniProt P28223)
# Sequence (P28223 whole entry): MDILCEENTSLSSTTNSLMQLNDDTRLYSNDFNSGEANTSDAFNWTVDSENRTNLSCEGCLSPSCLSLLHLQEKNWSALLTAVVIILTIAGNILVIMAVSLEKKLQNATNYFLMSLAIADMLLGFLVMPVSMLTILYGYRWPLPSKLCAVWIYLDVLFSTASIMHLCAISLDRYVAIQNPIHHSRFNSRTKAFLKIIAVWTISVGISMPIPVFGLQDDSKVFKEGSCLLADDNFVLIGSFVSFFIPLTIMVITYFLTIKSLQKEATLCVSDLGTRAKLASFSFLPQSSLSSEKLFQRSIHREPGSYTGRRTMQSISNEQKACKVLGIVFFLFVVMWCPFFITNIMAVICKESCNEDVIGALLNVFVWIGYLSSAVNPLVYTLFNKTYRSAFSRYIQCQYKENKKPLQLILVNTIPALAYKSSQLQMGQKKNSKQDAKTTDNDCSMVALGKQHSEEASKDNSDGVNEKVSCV
Exercise: for every item that follows, state its recorded pKi.
Note on units: pKi is unitless, being -log10 of a concentration expressed in mol/L.

QUERY: Recorded pKi of O=C1c2ccccc2CCCN1CCN1CCC(Oc2ccc(F)cc2)CC1 , please.
RESULT: 7.50

QUERY: Ok, now O=C1c2ccccc2CCCN1CCN1CCC(n2c(=O)oc3ccccc32)CC1
RESULT: 6.01

QUERY: Ok, now O=C1c2ccccc2CCCN1CCN1CCC(n2c(=O)oc3cc(F)ccc32)CC1
RESULT: 6.73

QUERY: Ok, now O=C1c2ccccc2CCCN1CCN1CCC(n2ccc3ccccc32)CC1
RESULT: 7.71

QUERY: Ok, now O=C(c1ccc(Cl)cc1)C1CCN(CCN2CCCc3ccccc3C2=O)CC1
RESULT: 7.11

QUERY: Ok, now O=C1c2ccccc2CCCN1CCN1CCC(Oc2ccccc2)CC1
RESULT: 6.81

QUERY: Ok, now O=C1c2ccccc2CCCN1CCN1CCC(Oc2ccc(Cl)cc2)CC1
RESULT: 7.13

QUERY: Ok, now O=C1c2ccccc2CCCN1CCN1CCC(n2c(=O)[nH]c3cc(F)ccc32)CC1
RESULT: 6.52
